# tested_target: EGFR(L858R_T790M_C797S) (aa695-end, Invitrogen) (Homo sapiens, UniProt P00533, C797S/L858R/T790M)
# Sequence (P00533 695-1210 T790M/C797S/L858R): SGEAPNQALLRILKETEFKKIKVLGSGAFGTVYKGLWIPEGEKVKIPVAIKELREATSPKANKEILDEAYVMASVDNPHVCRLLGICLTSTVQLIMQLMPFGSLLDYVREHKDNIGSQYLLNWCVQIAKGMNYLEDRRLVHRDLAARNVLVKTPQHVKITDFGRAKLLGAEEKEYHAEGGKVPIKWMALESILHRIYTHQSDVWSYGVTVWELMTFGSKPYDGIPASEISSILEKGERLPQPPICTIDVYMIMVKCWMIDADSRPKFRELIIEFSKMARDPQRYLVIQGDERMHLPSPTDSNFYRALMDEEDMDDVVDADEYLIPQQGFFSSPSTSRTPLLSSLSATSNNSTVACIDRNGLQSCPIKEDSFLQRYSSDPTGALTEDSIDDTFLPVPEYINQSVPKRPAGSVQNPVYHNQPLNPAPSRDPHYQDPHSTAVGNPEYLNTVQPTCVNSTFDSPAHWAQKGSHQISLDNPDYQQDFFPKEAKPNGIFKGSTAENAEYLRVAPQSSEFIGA
# assay_remarks: Biochemical EGFR inhibition assay (TR-FRET), L858R/T790M/C797S mutant
# run_parameters: ATP at Km, 15 min pre-incubation, 60 min reaction; read-out: LR_TM_CS (Km ATP) IC50
measured_property: IC50 (nM)

COc1cc(N2CCC(N3CCN(C)CC3)CC2)ncc1Nc1nc(Nc2cccc3c2N(S(C)(=O)=O)CC3)c2cc[nH]c2n1	3.8
CN(C)C1CCN(c2ccc(Nc3ncc(Cl)c(Nc4cccc5c4N(S(C)(=O)=O)CC5)n3)c3c2CCO3)CC1	0.85
CN1CCN(C2CCN(c3ccc(Nc4nc(Nc5cccc6c5N(S(C)(=O)=O)CC6)c5cc[nH]c5n4)nc3)CC2)CC1	2.7
COc1cc(N2CCC(N3CCN(C)CC3)CC2)ccc1Nc1ncc(Cl)c(Nc2cccc3c2N(S(=O)(=O)CC2CC(F)(F)C2)CC3)n1	5.5
COc1cc(N2CCC(N3CCN(C)CC3)CC2)c(C)cc1Nc1nc(N)c(Br)c(Nc2cccc3c2N(S(C)(=O)=O)CC3)n1	1.2

1: COc1cc(N2CCC(N3CCN(C)CC3)CC2)ccc1Nc1ncc(Cl)c(Nc2cccc3c2N(S(C)(=O)=O)CCC3)n1
2: COc1cc(N2C[C@@H](C)N(C)[C@@H](C)C2)c(C)cc1Nc1nc(Nc2cccc3c2N(S(C)(=O)=O)CC3)c2cc[nH]c2n1
Query: Of the two listed items, 1 and 2 , which carries the larger IC50 figure? Kindly give the label for the entry you pick.
Response: 2
(2: 5.3 nM, 1: 1.5 nM)

###

# tested_target: EGFR(Dell9_T790M_C797S) (aa 669-1210, in house) (Homo sapiens, UniProt P00533, T790M/C797S, form not given)
# Sequence (P00533 with tags, fused parts or gaps DEL746-750/T790M/C797S, form open): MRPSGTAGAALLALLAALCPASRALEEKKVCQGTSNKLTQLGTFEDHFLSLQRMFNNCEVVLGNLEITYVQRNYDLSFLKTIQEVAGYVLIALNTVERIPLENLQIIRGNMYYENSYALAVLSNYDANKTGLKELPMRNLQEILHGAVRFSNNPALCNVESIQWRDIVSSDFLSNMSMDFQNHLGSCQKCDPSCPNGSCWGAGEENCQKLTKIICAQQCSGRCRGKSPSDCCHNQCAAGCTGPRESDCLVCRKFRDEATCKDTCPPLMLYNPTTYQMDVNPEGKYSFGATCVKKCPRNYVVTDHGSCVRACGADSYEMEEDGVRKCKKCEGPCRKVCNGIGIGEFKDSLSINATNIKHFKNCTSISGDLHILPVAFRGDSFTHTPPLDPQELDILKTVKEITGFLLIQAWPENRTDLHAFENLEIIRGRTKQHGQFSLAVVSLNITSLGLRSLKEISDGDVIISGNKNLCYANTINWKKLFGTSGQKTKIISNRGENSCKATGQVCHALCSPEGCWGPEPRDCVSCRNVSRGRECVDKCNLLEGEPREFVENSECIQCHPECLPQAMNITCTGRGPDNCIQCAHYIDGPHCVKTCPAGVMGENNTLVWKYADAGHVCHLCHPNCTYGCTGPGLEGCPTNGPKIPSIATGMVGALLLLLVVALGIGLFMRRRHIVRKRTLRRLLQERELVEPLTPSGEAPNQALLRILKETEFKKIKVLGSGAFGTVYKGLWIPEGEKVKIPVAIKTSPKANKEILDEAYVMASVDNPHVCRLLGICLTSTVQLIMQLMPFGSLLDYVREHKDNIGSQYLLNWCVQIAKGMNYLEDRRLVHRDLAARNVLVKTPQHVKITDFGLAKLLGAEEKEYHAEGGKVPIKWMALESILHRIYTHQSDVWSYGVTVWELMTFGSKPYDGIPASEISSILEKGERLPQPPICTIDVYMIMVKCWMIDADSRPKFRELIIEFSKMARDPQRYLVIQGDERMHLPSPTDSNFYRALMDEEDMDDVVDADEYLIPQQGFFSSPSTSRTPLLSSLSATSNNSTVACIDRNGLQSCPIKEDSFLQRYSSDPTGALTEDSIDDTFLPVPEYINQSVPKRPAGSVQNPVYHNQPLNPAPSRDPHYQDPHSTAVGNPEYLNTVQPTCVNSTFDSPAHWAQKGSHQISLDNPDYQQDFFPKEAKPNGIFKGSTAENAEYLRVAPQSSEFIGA
# assay_remarks: Biochemical EGFR inhibition assay (TR-FRET), Del19/T790M/C797S mutant
# run_parameters: ATP at Km, 15 min pre-incubation, 60 min reaction; read-out: Del_TM_CS (Km ATP) IC50
pIC50: −log10 of the molar value.
measured_property: pIC50

COc1cc(N2CCC(N3CCN(C)CC3)CC2)ccc1Nc1ncc(Cl)c(Nc2cccc3c2N(S(C)(=O)=O)C(C)C3)n1 (stereo not shown)	9.17
COc1cc(N2CCCN(C)CC2)c(C)cc1Nc1nc(Nc2cccc3c2N(S(C)(=O)=O)CC3)c2cc[nH]c2n1	8.51

P: COc1cc(N2CCC(N3CCN(C)CC3)CC2)ccc1Nc1ncc(Br)c(Nc2cccc3c2N(S(C)(=O)=O)CC3)n1
Q: CN1CCN(c2ccc(Nc3nc(Nc4cccc5c4N(S(C)(=O)=O)CC5)c4cc[nH]c4n3)cc2F)CC1
Query: Smaller pIC50 value? Options are P and Q Kindly give the label for the entry you pick.
Response: Q

###

# tested_target: EGFR(L858R_T790M_C797S) (aa695-end, Invitrogen) (Homo sapiens, UniProt P00533, C797S/L858R/T790M)
# Construct: purchased Invitrogen
# assay_remarks: Biochemical EGFR inhibition assay (TR-FRET), L858R/T790M/C797S mutant
# run_parameters: ATP at Km, 15 min pre-incubation, 60 min reaction; read-out: LR_TM_CS (Km ATP) IC50
pIC50: −log10 of the molar value.
measured_property: pIC50

Solved entries:
COc1cc(N2CCC(N3CCN(C)CC3)CC2)c(C)cc1Nc1ncc(Br)c(Nc2cccc3c2N(S(C)(=O)=O)CC32CC2)n1	9.52
Cc1cc(Nc2nc(Nc3cccc4c3N(S(C)(=O)=O)CC4)c3cc[nH]c3n2)c(OC(C)C)cc1N1CCC(N2CCN(C)CC2)CC1	7.77
CN1CCN(c2ccc(Nc3nc(Nc4cccc5c4N(S(C)(=O)=O)CC5)c4cc[nH]c4n3)cc2F)CC1	8.82
COc1cc(N2CCC(N3CCN(C)CC3)CC2)ccc1Nc1ncc(Cl)c(Nc2cccc3c2N(S(=O)(=O)C(C)(C)C)CC3)n1	7.89
CN1CCN(C2CCN(c3ccc(Nc4ncc(Br)c(Nc5cccc6c5N(S(C)(=O)=O)CC6)n4)c4c3OCCO4)CC2)CC1	9.05
COc1cc(N2CCC(N3CCN(C)CC3)CC2)ccc1Nc1ncc(C(F)(F)F)c(Nc2cccc3c2N(S(C)(=O)=O)CC3)n1	9.48

P: CN1CCN(C2CCN(c3c(F)cc(Nc4ncc(Br)c(Nc5cccc6c5N(S(C)(=O)=O)CC6)n4)c4c3CCO4)CC2)CC1
Q: CN1CCN(C2CCN(c3ccc(Nc4nc(Nc5cccc6c5N(S(C)(=O)=O)CC6)c5cc[nH]c5n4)cc3)CC2)CC1
R: COc1cc(N2[C@@H]3CC[C@H]2CN(C)C3)ccc1Nc1nc(Nc2cccc3c2N(S(C)(=O)=O)CC3)c2cc[nH]c2n1
S: COc1cc(N2CCC(N3CCN(C)CC3)CC2)ccc1Nc1ncc(Cl)c(Nc2cccc3c2N(S(=O)(=O)C2CC2)CC3)n1
Query: # rank by pIC50, ascending (min first) When ranking, write the labels in the order the request describes.
Response: R, S, P, Q
(R: 8.55, S: 9.21, P: 9.52, Q: 10.00)

1: CN(C)C1CCN(c2ccc(Nc3ncc(Cl)c(Nc4cccc5c4N(S(C)(=O)=O)CC5)n3)c3c2OCO3)CC1
2: COc1cc(N2CCC(N3CCN(C)CC3)CC2)ccc1Nc1ncc(F)c(Nc2cccc3c2N(S(C)(=O)=O)CC3)n1
3: CC1Cc2c(N3CCC(N(C)C)CC3)ccc(Nc3ncc(Br)c(Nc4cccc5c4N(S(C)(=O)=O)CC5)n3)c2O1 (centres unmarked)
4: COc1cc(N2CCC(N(C)C)CC2)c(C)cc1Nc1ncc(Br)c(Nc2cccc3c2N(S(C)(=O)=O)CC3)n1
Query: Rank descending by pIC50. When ranking, write the labels in the order the request describes.
Response: 4, 3, 1, 2
